# assay.system: TLR2/TLR6 (Mus musculus) (UniProt Q9QUN7+Q9EPW9)
# experiment.summary: Inhibition of TLR2/6 in BALB/c mouse BMDM assessed as downregulation of BLP-stimulated IL-6 level at 5 ug/ml preincubated for 18 hrs followed by BLP challenge measured after 24 hrs by ELISA relative to control
# Assay type: protein-complex assay
Active and inactive are the calls of the source. The rule behind the calls is not given here.
Possible outcomes: TRUE for active, FALSE for inactive

record.smiles | assay.system | cat
CN(C)CCS(=O)(=O)Nc1ccc(F)cc1 | TLR2/TLR6 (Mus musculus) (UniProt Q9QUN7+Q9EPW9) | FALSE
COc1cccc(C(=O)NCCN2CCOCC2)c1 | TLR2/TLR6 (Mus musculus) (UniProt Q9QUN7+Q9EPW9) | FALSE
O=S(=O)(Cc1ccc2ccccc2c1)NCCN1CCCC1 | TLR2/TLR6 (Mus musculus) (UniProt Q9QUN7+Q9EPW9) | TRUE
O=S(=O)(CCN1CCSCC1)c1ccccc1 | TLR2/TLR6 (Mus musculus) (UniProt Q9QUN7+Q9EPW9) | FALSE
CN(C)CCS(=O)(=O)NCc1ccccc1 | TLR2/TLR6 (Mus musculus) (UniProt Q9QUN7+Q9EPW9) | FALSE
Cc1ccc(CS(=O)(=O)NCCN2CCCC2)cc1 | TLR2/TLR6 (Mus musculus) (UniProt Q9QUN7+Q9EPW9) | FALSE
CN(C)CCCOP(=O)(O)Oc1ccc(NC(=O)OC(C)(C)C)cc1 | TLR2/TLR6 (Mus musculus) (UniProt Q9QUN7+Q9EPW9) | FALSE
CN(C)CCCNS(=O)(=O)Cc1ccccc1 | TLR2/TLR6 (Mus musculus) (UniProt Q9QUN7+Q9EPW9) | FALSE
CN(C)CCN(C)CCS(=O)(=O)Cc1ccc(F)cc1 | TLR2/TLR6 (Mus musculus) (UniProt Q9QUN7+Q9EPW9) | FALSE
Cc1ccc(CS(=O)(=O)CCN2CCCC2)cc1 | TLR2/TLR6 (Mus musculus) (UniProt Q9QUN7+Q9EPW9) | TRUE
O=S(=O)(CCN1CCOCC1)NCc1ccccc1 | TLR2/TLR6 (Mus musculus) (UniProt Q9QUN7+Q9EPW9) | FALSE
Cc1ccc(CS(=O)(=O)NCCN(C)C)cc1 | TLR2/TLR6 (Mus musculus) (UniProt Q9QUN7+Q9EPW9) | FALSE
CN(C)CCS(=O)(=O)NCc1ccc([N+](=O)[O-])cc1 | TLR2/TLR6 (Mus musculus) (UniProt Q9QUN7+Q9EPW9) | TRUE
CC[C@@H](C)NCCS(=O)(=O)Cc1cccc(F)c1 | TLR2/TLR6 (Mus musculus) (UniProt Q9QUN7+Q9EPW9) | TRUE
Cc1ccc(CS(=O)(=O)CC[N+]2(C)CCCC2)cc1 | TLR2/TLR6 (Mus musculus) (UniProt Q9QUN7+Q9EPW9) | FALSE
O=S(=O)(CCN1CCCC1)c1ccccc1 | TLR2/TLR6 (Mus musculus) (UniProt Q9QUN7+Q9EPW9) | FALSE
CN(C)CCS(=O)(=O)Cc1ccc(Br)cc1 | TLR2/TLR6 (Mus musculus) (UniProt Q9QUN7+Q9EPW9) | FALSE
CC(C)(C)NCCS(=O)(=O)c1ccccc1 | TLR2/TLR6 (Mus musculus) (UniProt Q9QUN7+Q9EPW9) | FALSE
COc1cccc(C(=O)NCCN2CCCC2)c1 | TLR2/TLR6 (Mus musculus) (UniProt Q9QUN7+Q9EPW9) | FALSE
CCCNCCS(=O)(=O)c1ccccc1 | TLR2/TLR6 (Mus musculus) (UniProt Q9QUN7+Q9EPW9) | TRUE
O=S(=O)(Cc1ccc(F)cc1)NCCN1CCCC1 | TLR2/TLR6 (Mus musculus) (UniProt Q9QUN7+Q9EPW9) | FALSE
COc1cccc(C(=O)NCCN(C)C)c1 | TLR2/TLR6 (Mus musculus) (UniProt Q9QUN7+Q9EPW9) | FALSE
CN(C)CCCNS(=O)(=O)Cc1ccc(F)cc1 | TLR2/TLR6 (Mus musculus) (UniProt Q9QUN7+Q9EPW9) | FALSE
CN1CCN(CCS(=O)(=O)c2ccccc2)CC1 | TLR2/TLR6 (Mus musculus) (UniProt Q9QUN7+Q9EPW9) | FALSE
CN(C)CCCNS(=O)(=O)Cc1ccc([N+](=O)[O-])cc1 | TLR2/TLR6 (Mus musculus) (UniProt Q9QUN7+Q9EPW9) | TRUE
O=S(=O)(CCNCCCO)c1ccccc1 | TLR2/TLR6 (Mus musculus) (UniProt Q9QUN7+Q9EPW9) | FALSE
CN(C)CCNS(=O)(=O)Cc1ccc(F)cc1 | TLR2/TLR6 (Mus musculus) (UniProt Q9QUN7+Q9EPW9) | FALSE
O=C(CCN1CCOCC1)NCc1cccc2cnccc12 | TLR2/TLR6 (Mus musculus) (UniProt Q9QUN7+Q9EPW9) | FALSE
C[N+]1(CCS(=O)(=O)Cc2ccc(Br)cc2)CCCC1 | TLR2/TLR6 (Mus musculus) (UniProt Q9QUN7+Q9EPW9) | FALSE
CN(C)CCOP(=O)(O)Cc1ccc(Br)cc1 | TLR2/TLR6 (Mus musculus) (UniProt Q9QUN7+Q9EPW9) | FALSE
O=S(=O)(CCN1CCCC1)Cc1ccc(F)cc1 | TLR2/TLR6 (Mus musculus) (UniProt Q9QUN7+Q9EPW9) | FALSE
O=S(=O)(Cc1ccc2ccccc2c1)NCCN1CCOCC1 | TLR2/TLR6 (Mus musculus) (UniProt Q9QUN7+Q9EPW9) | FALSE
O=C(Cc1ccccc1)NCCN1CCOCC1 | TLR2/TLR6 (Mus musculus) (UniProt Q9QUN7+Q9EPW9) | FALSE
O=S(=O)(CCN1CCCC1)Nc1ccc(F)cc1 | TLR2/TLR6 (Mus musculus) (UniProt Q9QUN7+Q9EPW9) | FALSE
CN(C)CCNCCS(=O)(=O)c1ccccc1 | TLR2/TLR6 (Mus musculus) (UniProt Q9QUN7+Q9EPW9) | FALSE
O=S(=O)(Cc1ccc(F)cc1)NCCN1CCOCC1 | TLR2/TLR6 (Mus musculus) (UniProt Q9QUN7+Q9EPW9) | FALSE
COc1ccc2c(CS(=O)(=O)NCCN3CCOCC3)cc(=O)oc2c1 | TLR2/TLR6 (Mus musculus) (UniProt Q9QUN7+Q9EPW9) | FALSE
CN(C)CCNS(=O)(=O)Cc1ccc(Br)cc1 | TLR2/TLR6 (Mus musculus) (UniProt Q9QUN7+Q9EPW9) | FALSE
O=S(=O)(CCN1CCOCC1)NCc1ccc(Br)cc1 | TLR2/TLR6 (Mus musculus) (UniProt Q9QUN7+Q9EPW9) | FALSE
Cc1ccc(CS(=O)(=O)CCCN(C)C)cc1 | TLR2/TLR6 (Mus musculus) (UniProt Q9QUN7+Q9EPW9) | FALSE
CC[C@H](C)NCCS(=O)(=O)Cc1ccc(Br)cc1 | TLR2/TLR6 (Mus musculus) (UniProt Q9QUN7+Q9EPW9) | FALSE
CC(C)NCCS(=O)(=O)c1ccccc1 | TLR2/TLR6 (Mus musculus) (UniProt Q9QUN7+Q9EPW9) | FALSE
C[N+](C)(C)CCCS(=O)(=O)Cc1ccc(Br)cc1 | TLR2/TLR6 (Mus musculus) (UniProt Q9QUN7+Q9EPW9) | TRUE
O=S(=O)(CCN1CCOCC1)Cc1ccc(F)cc1 | TLR2/TLR6 (Mus musculus) (UniProt Q9QUN7+Q9EPW9) | FALSE
O=S(=O)(CCN1CCCC1)Cc1ccc(Br)cc1 | TLR2/TLR6 (Mus musculus) (UniProt Q9QUN7+Q9EPW9) | FALSE
C[N+](C)(C)CCS(=O)(=O)Cc1ccc(Br)cc1 | TLR2/TLR6 (Mus musculus) (UniProt Q9QUN7+Q9EPW9) | FALSE
Cc1ccc(CP(=O)(O)OCCN(C)C)cc1 | TLR2/TLR6 (Mus musculus) (UniProt Q9QUN7+Q9EPW9) | FALSE
CN(C)CCOP(=O)(O)Cc1ccc([N+](=O)[O-])cc1 | TLR2/TLR6 (Mus musculus) (UniProt Q9QUN7+Q9EPW9) | FALSE
CC[C@@H](C)NCCS(=O)(=O)Cc1ccc(Br)cc1 | TLR2/TLR6 (Mus musculus) (UniProt Q9QUN7+Q9EPW9) | FALSE
CN(C)CCNS(=O)(=O)Cc1ccc2ccccc2c1 | TLR2/TLR6 (Mus musculus) (UniProt Q9QUN7+Q9EPW9) | FALSE
O=S(=O)(CCN1CCCC1)NCc1ccc(F)cc1 | TLR2/TLR6 (Mus musculus) (UniProt Q9QUN7+Q9EPW9) | FALSE
O=S(=O)(CCCN1CCCC1)Cc1ccc(Br)cc1 | TLR2/TLR6 (Mus musculus) (UniProt Q9QUN7+Q9EPW9) | FALSE
Cc1ccc(CS(=O)(=O)CCC[N+]2(C)CCCC2)cc1 | TLR2/TLR6 (Mus musculus) (UniProt Q9QUN7+Q9EPW9) | FALSE
Cc1ccc(CS(=O)(=O)NCCN2CCOCC2)cc1 | TLR2/TLR6 (Mus musculus) (UniProt Q9QUN7+Q9EPW9) | FALSE
